These data points were gathered from paper PMC10333884.

Recorded pIC50 by entry
- Target or system: TSG101 UEV (Homo sapiens)
- Construct: TSG101_UEV__Q99816_1_145; made in house; host or cells: Escherichia coli BL21-Gold(DE3)
- Sequence (Q99816 1-145): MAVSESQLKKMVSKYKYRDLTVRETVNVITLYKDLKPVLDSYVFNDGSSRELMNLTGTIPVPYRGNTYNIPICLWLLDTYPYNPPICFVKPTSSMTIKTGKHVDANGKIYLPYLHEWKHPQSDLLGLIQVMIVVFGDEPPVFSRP
- Assay remarks: FP displacement assay, TSG101 UEV
- Type: binding
- Condition set: Fig 4B, TSG101 UEV, technical triplicates, read-out: IC50 values of displacement curves, with SEM
- Description: FP experiments were performed as described previously (Kliche et al, [2021]). Shortly, in order to monitor the binding event, FITC‐labelled peptides were used (excitation 495 nm, emission: 535 nm) and the FP signal was recorded in mP on a SpectraMax iD5 Multi‐Mode Microplate Reader (Molecular Devices) by measuring the emitted light in two angels. The measurements were performed at room temperature and prepared in nonbinding black half area 96‐well microplates (Corning®; 50 μl/well). […]
Non-standard residues stand in square brackets, D forms with d. Residues, ends and D or L forms follow the SMILES beside them. pT = C[C@@H](OP(=O)(O)O)[C@H](N)C(=O)O; pS = N[C@@H](COP(=O)(O)O)C(=O)O
Note: pIC50 values are expressed as the negative base-10 logarithm of concentration in M.

Use the examples below as a reference point.
CC(=O)N[C@@H](Cc1c[nH]cn1)C(=O)N[C@@H](CO)C(=O)NCC(=O)N[C@@H](CC(N)=O)C(=O)N[C@H](C(=O)N[C@@H](CCC(=O)O)C(=O)N1CCC[C@H]1C(=O)N[C@H](C(=O)N[C@@H](C)C(=O)N1CCC[C@H]1C(=O)N1CCC[C@H]1C(=O)N[C@@H](Cc1ccc(O)cc1)C(=O)N[C@@H](CC(C)C)C(=O)N[C@@H](CCC(N)=O)C(=O)N[C@@H](CCC(=O)O)C(=O)N[C@@H](CO)C(N)=O)[C@@H](C)O)C(C)C [PIP4P2_17–32 E] (Ac-HSGNVEPTAPPYLQES-NH2): 4.43
CC[C@H](C)[C@H](NC(=O)[C@H](CO)NC(=O)[C@H](CCC(N)=O)NC(C)=O)C(=O)N[C@@H](C)C(=O)N[C@@H](CCCNC(=N)N)C(=O)N[C@@H](CCC(=O)O)C(=O)N1CCC[C@H]1C(=O)N[C@@H](CO)C(=O)N[C@@H](C)C(=O)N1CCC[C@H]1C(=O)N[C@@H](CO)C(=O)N[C@H](C(=O)N1CCC[C@H]1C(=O)N[C@H](C(=O)N1CCC[C@H]1C(=O)N[C@@H](Cc1ccc(O)cc1)C(N)=O)[C@@H](C)O)[C@@H](C)CC [PDCD6IP711–725 wt] (Ac-QSIAREPSAPSIPTPY-NH2): 4.47
CC(=O)N[C@@H](Cc1c[nH]cn1)C(=O)N[C@@H](CO)C(=O)NCC(=O)N[C@@H](CC(N)=O)C(=O)N[C@H](C(=O)N[C@H](C(=O)N1CCC[C@H]1C(=O)N[C@H](C(=O)N[C@@H](C)C(=O)N1CCC[C@H]1C(=O)N1CCC[C@H]1C(=O)N[C@@H](Cc1ccc(O)cc1)C(=O)N[C@@H](CC(C)C)C(=O)N[C@@H](CCC(N)=O)C(=O)N[C@@H](CCC(=O)O)C(=O)N[C@@H](CO)C(N)=O)[C@@H](C)O)[C@@H](C)OP(=O)(O)O)C(C)C [PIP4P2_17–32 pS] (Ac-HSGNV[pT]PTAPPYLQES-NH2): 4.47
CSCC[C@H](NC(=O)[C@@H]1CCCN1C(=O)[C@H](CCC(=O)O)NC(=O)[C@H](CC(C)C)NC(=O)[C@@H]1CCCN1C(=O)[C@H](C)NC(=O)[C@@H](NC(=O)[C@@H]1CCCN1C(=O)[C@H](CO)NC(=O)[C@H](CO)NC(=O)[C@H](C)NC(=O)CNC(=O)[C@H](CC(N)=O)NC(=O)[C@H](Cc1ccc(O)cc1)NC(C)=O)[C@@H](C)O)C(=O)N[C@@H](CO)C(=O)N1CCC[C@H]1C(N)=O [GJA1_269–283 E] (Ac-YNGASSPTAPLEPMSP-NH2): 3.63

Field: next compound
Input CSCC[C@H](NC(=O)[C@@H]1CCCN1C(=O)[C@H](COP(=O)(O)O)NC(=O)[C@H](CC(C)C)NC(=O)[C@@H]1CCCN1C(=O)[C@H](C)NC(=O)[C@@H](NC(=O)[C@@H]1CCCN1C(=O)[C@H](CO)NC(=O)[C@H](CO)NC(=O)[C@H](C)NC(=O)CNC(=O)[C@H](CC(N)=O)NC(=O)[C@H](Cc1ccc(O)cc1)NC(C)=O)[C@@H](C)O)C(=O)N[C@@H](CO)C(=O)N1CCC[C@H]1C(N)=O [GJA1_269–283 pS] (Ac-YNGASSPTAPL[pS]PMSP-NH2) , output reported pIC50.
3.38
